target: hAT1R (Homo sapiens); assay: BRET Gq biosensor assay, agonist response, HEK293 cells; assay type: cell-based; conditions: section of the 42nd table directly before the BRET P63 section
Sequence (P30556 whole entry): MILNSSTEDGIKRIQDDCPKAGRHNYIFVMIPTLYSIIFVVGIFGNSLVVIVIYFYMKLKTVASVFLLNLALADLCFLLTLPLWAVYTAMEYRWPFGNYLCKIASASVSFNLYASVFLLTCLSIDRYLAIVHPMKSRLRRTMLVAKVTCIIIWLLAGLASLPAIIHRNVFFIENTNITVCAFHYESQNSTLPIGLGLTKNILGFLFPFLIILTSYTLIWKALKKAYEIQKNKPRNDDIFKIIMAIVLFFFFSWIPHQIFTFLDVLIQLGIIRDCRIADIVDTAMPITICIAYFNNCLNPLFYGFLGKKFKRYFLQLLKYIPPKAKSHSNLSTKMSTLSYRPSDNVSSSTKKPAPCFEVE
pEC50: −log10 of the molar value.
Rule: pEC50 of 7 or more gives criterion met; anything lower gives criterion not met.

Identify whether the reported pEC50 of the following molecule is 7 or greater: CCOc1nc2cccc(C(=O)O)c2n1Cc1ccc(-c2cc(N3CCC[C@@H](C)C3)ccc2-c2nn[nH]n2)cc1 [Example 323] criterion not met

Confirm if pEC50 reported for the molecule CCCCc1ncc(C(=O)N2CCCC2)n1Cc1ccc(-c2cc(-c3ccccc3)ccc2-c2nn[nH]n2)cc1 [Example 347] is 7 or above. criterion not met

Would you say CCCCc1nc(Cl)c(C(=O)O)n1Cc1ccc(-c2cc(N3CCC[C@H](C)C3)ccc2-c2nn[nH]n2)cc1 [Example 418] shows pEC50 at minimum 7? criterion not met

Next:
Identify whether the reported pEC50 of the following molecule is 7 or greater: CCCCC(=O)N(Cc1ccc(-c2cc(-c3ccccc3)ccc2-c2nn[nH]n2)cc1)C1(C(=O)O)CC1 [Example 269] criterion not met

Given CCCCc1nc(Cl)c(C(=O)O)n1Cc1ccc(-c2cc(-c3ccc(C(=O)N(C)C)cc3)ccc2-c2nn[nH]n2)cc1 [Example 390] , state whether its pEC50 is at least 7. criterion met

Is pEC50 at least 7? Consider CCOc1nc2cccc(C(=O)O)c2n1Cc1ccc(-c2cc(-n3ccc(C(F)(F)F)n3)ccc2-c2nn[nH]n2)cc1 [Example 338] criterion met

Please indicate if the recorded pEC50 for CCCCC(=O)N(Cc1ccc(-c2cc(-c3cnn(C)c3)ccc2-c2nn[nH]n2)cc1)C1(C(=O)O)CCCCC1 [Example 288] meets or exceeds 7. criterion not met
